Origin of values: ChEMBL document CHEMBL1671752

Below, each entry is listed alongside its reported EC50.
System: Human alphaherpesvirus 2
TEST DETAILS: Antiviral activity against Herpes simplex virus 2 isolate 24 harboring G39E, -1G 440 = Stop 229 mutations in thymidine kinase and A9T, P15S, L60P, E139K, H837R mutations in DNA polymerase infected in african green monkey Vero cells by plaque reduction assay
Assay type: functional, organism-based
CONDITION NOTES: Human alphaherpesvirus 2, isolate 24, Vero
OUTCOME MEASURE: EC50

Nc1nc2c(ncn2COCCO)c(=O)[nH]1 ... > 50 µM
O=C(O)P(=O)(O)O ... < 66 µM

----------
Tested on: Human alphaherpesvirus 1
TEST DETAILS: Antiviral activity against Herpes simplex virus 1 isolate 4 harboring N23S, K36E -1C 553 = frameshift mutations in thymidine kinase and S33G, A330R, A899V, L1188F mutations in DNA polymerase infected in african green monkey Vero cells by plaque reduction assay
Type: functional, organism-based
CONDITION NOTES: Human alphaherpesvirus 1, isolate 4, Vero
OUTCOME MEASURE: EC50 (µM)

Nc1nc2c(ncn2COCCO)c(=O)[nH]1 [ACYCLOVIR] ... 16
